Tested on: alkaline phosphatase, intestinal [Bos taurus]
assayText: IAP enzyme activity enhancers – biochemical, bovine IAP, CDP-star luminescence, primary screen (AID 1016)
conditionLabel: purified bovine IAP, 30 min, at 20 µM, hits give high values, fold of DMSO-control signal, blank-subtracted
Hit rate of the full screen: of about 200,000 compounds, about 330 (0.17%) were called active. For the sample, actives were picked, then their nearest neighbours and some compounds at random. Where a SMILES comes first, the peptide text is derived from it. [ ]: non-standard residue; d: D form. ξ: configuration not given here. ξM = CSCCC(N)C(=O)O
parameterMeasured: activation factor
Just the number, please, no unit after it.

See these solved cases before continuing.
Prompt: I am curious: what activation factor value has been reported for `CCCN(CCC)CCCNC(=O)CNC(=O)c1nn(-c2ccc(OC)cc2)c(=O)c2ccccc12` ?
Completion: 1.1

Prompt: I am curious: what activation factor value has been reported for `Cc1[nH]nc(SCC(=O)NCC(C)C)c1[N+](=O)[O-]` ?
Completion: 1.2

Prompt: I am curious: what activation factor value has been reported for `Fc1ccccc1Cc1ccc(Cl)nn1` ?
Completion: 0.9

Others:
Prompt: I am curious: what activation factor value has been reported for `Cc1ccc(S(=O)(=O)/N=C(/Nc2ccc3[nH]c(=O)[nH]c3c2)c2ccccc2)cc1` ?
Completion: 0.9

Prompt: I am curious: what activation factor value has been reported for CCOC(=O)NN1C(=O)c2ccccc2NC1c1ccccc1O (stereo unspecified) ?
Completion: 1

Prompt: I am curious: what activation factor value has been reported for COC(=O)CNC(=O)C(CCSC)NC(C)=O (stereo unspecified) (Ac-[ξM]-Gly-OMe) ?
Completion: 1
